# EXPERIMENTAL_TARGET: human glucagon receptor (Homo sapiens, UniProt P47871)
# Construct: made in house; host or cells: FreeStyle CHO cells, transient transfection with pMSRαneo/hGCGR; membrane fraction (35,000 rpm pellet)
# Sequence (P47871 26-477): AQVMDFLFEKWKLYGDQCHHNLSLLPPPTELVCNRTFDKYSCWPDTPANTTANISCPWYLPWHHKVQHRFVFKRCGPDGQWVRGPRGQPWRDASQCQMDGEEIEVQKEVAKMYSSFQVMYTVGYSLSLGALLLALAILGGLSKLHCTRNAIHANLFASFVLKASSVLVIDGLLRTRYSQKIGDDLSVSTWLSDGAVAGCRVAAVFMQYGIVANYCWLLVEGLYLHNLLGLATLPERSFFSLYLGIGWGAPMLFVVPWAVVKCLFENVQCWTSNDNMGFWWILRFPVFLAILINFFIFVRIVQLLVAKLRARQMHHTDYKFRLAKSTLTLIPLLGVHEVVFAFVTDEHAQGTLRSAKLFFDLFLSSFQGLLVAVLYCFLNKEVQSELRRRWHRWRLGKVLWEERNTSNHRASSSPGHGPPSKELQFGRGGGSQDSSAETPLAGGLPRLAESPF
# ASSAY_PROTOCOL: Glucagon binding inhibitory activity ([125I]-glucagon binding to glucagon receptor membrane protein)
# MEASUREMENT_PARAMETERS: test compound 10 μM; 0.4% DMSO = 0%, non-labeled glucagon 1 μM = 100%; read-out: inhibitory rate (%) at 10 μM
MEASURE_NAME: inhibition at 10 µM (%)

[
  {
    "COMPOUND": "Cc1c(C(Nc2ccc(C(=O)N(C)CCC(=O)O)cc2)C2CCCCC2)oc2ccc(NC(=O)c3ccccc3)cc12 (stereo not drawn) [Example A129]",
    "UNIT_ABBREV": "%",
    "MEASURED_NUMBER": 82
  },
  {
    "COMPOUND": "CSCCCOc1ccc2oc(C(Nc3ccc(C(=O)N(C)CCC(=O)O)cc3)C3CCCCC3)c(C)c2c1 (stereo not drawn) [Example A150]",
    "UNIT_ABBREV": "%",
    "MEASURED_NUMBER": 81
  },
  {
    "COMPOUND": "Cc1nn(-c2ncc(C(F)(F)F)cc2Cl)cc1C(Nc1ccc(C(=O)NCCC(=O)O)cc1)C1CCCCC1 (stereo not drawn) [Example 31]",
    "UNIT_ABBREV": "%",
    "MEASURED_NUMBER": 67
  },
  {
    "COMPOUND": "COCc1nn(-c2ccc(C(F)(F)F)cn2)cc1C(Nc1ccc(C(=O)N(C)CCC(=O)O)cc1)C1CCCCC1 (stereo not drawn) [Example 30]",
    "UNIT_ABBREV": "%",
    "MEASURED_NUMBER": 75
  },
  {
    "COMPOUND": "Cc1nn(-c2ccc(OC(F)(F)F)cc2)cc1C(Nc1ccc(C(=O)NCCC(=O)O)cc1)C1CCCCC1 (stereo not drawn) [Example 25]",
    "UNIT_ABBREV": "%",
    "MEASURED_NUMBER": 78
  },
  {
    "COMPOUND": "Cc1c(C(Nc2ccc(C(=O)N(C)CCC(=O)O)cn2)C2CCCCC2)oc2ccc(F)cc12 (single isomer, unassigned) [Example A53]",
    "UNIT_ABBREV": "%",
    "MEASURED_NUMBER": 83
  },
  {
    "COMPOUND": "Cc1c(C(Nc2ccc(C(=O)N(C)CCC(=O)O)nc2)C(C)C)oc2ccc(OCc3ccccc3)cc12 (stereo not drawn) [Example A172]",
    "UNIT_ABBREV": "%",
    "MEASURED_NUMBER": 82
  },
  {
    "COMPOUND": "COCc1nn(-c2cccc(C(F)(F)F)n2)cc1C(Nc1ccc(C(=O)N(C)CCC(=O)O)cc1)C1CCCCC1 (stereo not drawn) [Example 90]",
    "UNIT_ABBREV": "%",
    "MEASURED_NUMBER": 66
  },
  {
    "COMPOUND": "CCCc1nn(-c2ccc(C(F)(F)F)cn2)cc1C(Nc1ccc(C(=O)NCCC(=O)O)cc1)C1CCCCC1 (stereo not drawn) [Example 5]",
    "UNIT_ABBREV": "%",
    "MEASURED_NUMBER": 73
  },
  {
    "COMPOUND": "COc1ccccc1-n1cc(C)c(C(Nc2ccc(C(=O)N(C)CCC(=O)O)cc2)C2CCCCC2)n1 (stereo not drawn) [Example 77]",
    "UNIT_ABBREV": "%",
    "MEASURED_NUMBER": 55
  },
  {
    "COMPOUND": "Cc1ccc2oc(C(Nc3ccc(C(=O)NCCC(=O)O)cc3)C3CCCCC3)c(C)c2c1 (stereo not drawn) [Example A90]",
    "UNIT_ABBREV": "%",
    "MEASURED_NUMBER": 77
  },
  {
    "COMPOUND": "Cc1nn(-c2ccccc2)cc1C(Nc1ccc(C(=O)N(C)CCC(=O)O)cc1)C1CCCCC1 (stereo not drawn) [Example 18]",
    "UNIT_ABBREV": "%",
    "MEASURED_NUMBER": 72
  },
  {
    "COMPOUND": "Cc1c(C(CC(C)C)Nc2ccc(C(=O)N(C)CCC(=O)O)cn2)sc2ccccc12 (stereo not drawn) [Example A38]",
    "UNIT_ABBREV": "%",
    "MEASURED_NUMBER": 56
  },
  {
    "COMPOUND": "CCCCCCC(Nc1ccc(C(=O)NCCC(=O)O)cc1)c1cc2cc(Cl)ccc2n1-c1cccc(C(F)(F)F)c1 (stereo not drawn) [Example A106]",
    "UNIT_ABBREV": "%",
    "MEASURED_NUMBER": 69
  },
  {
    "COMPOUND": "Cc1c(C(Nc2ccc(C(=O)N(C)CCC(=O)O)cc2)C2CCCCC2)oc2ccc(OCC3(C)COC3)cc12 (stereo not drawn) [Example A196]",
    "UNIT_ABBREV": "%",
    "MEASURED_NUMBER": 87
  },
  {
    "COMPOUND": "O=C(O)CCNC(=O)c1ccc(NC(c2cc3ccc(C(F)(F)F)cc3s2)C2CCCCC2)cc1 (stereo not drawn) [Example A12]",
    "UNIT_ABBREV": "%",
    "MEASURED_NUMBER": 72
  },
  {
    "COMPOUND": "Cc1c(C(Nc2ccc(C(=O)N(C)CCC(=O)O)nc2)C(C)C)oc2ccc(OCC3CC3)cc12 (stereo not drawn) [Example A213]",
    "UNIT_ABBREV": "%",
    "MEASURED_NUMBER": 70
  },
  {
    "COMPOUND": "Cc1c(C(CC(C)C)Nc2ccc(C(=O)NCCC(=O)O)cc2)sc2ccccc12 (stereo not drawn) [Example A33]",
    "UNIT_ABBREV": "%",
    "MEASURED_NUMBER": 76
  },
  {
    "COMPOUND": "O=C(O)CCNC(=O)c1ccc(NC(c2nn(-c3ccccc3)c3ccccc23)C2CCCCC2)cc1 (stereo not drawn) [Example A14]",
    "UNIT_ABBREV": "%",
    "MEASURED_NUMBER": 73
  },
  {
    "COMPOUND": "Cc1nn(-c2ccc(Cl)cc2)cc1C(Nc1ccc(C(=O)NCCC(=O)O)cc1)C1CCCCC1 (stereo not drawn) [Example 19]",
    "UNIT_ABBREV": "%",
    "MEASURED_NUMBER": 80
  },
  {
    "COMPOUND": "COc1ncccc1-c1ccc2oc(C(Nc3ccc(C(=O)N(C)CCC(=O)O)cc3)C3CCCCC3)c(C)c2c1 (stereo not drawn) [Example A177]",
    "UNIT_ABBREV": "%",
    "MEASURED_NUMBER": 90
  },
  {
    "COMPOUND": "CCC(CC)C(Nc1ccc(C(=O)NCCC(=O)O)cc1)c1oc2ccc(F)cc2c1C (stereo not drawn) [Example A191]",
    "UNIT_ABBREV": "%",
    "MEASURED_NUMBER": 82
  },
  {
    "COMPOUND": "COc1ccc(-n2cc(C(Nc3ccc(C(=O)NCCC(=O)O)cc3)C3CCCCC3)c(CN3CCOCC3)n2)cc1 (stereo not drawn) [Example 68]",
    "UNIT_ABBREV": "%",
    "MEASURED_NUMBER": 66
  },
  {
    "COMPOUND": "COc1nn(-c2ccc(OC(F)(F)F)cc2)cc1C(Nc1ccc(C(=O)NCCC(=O)O)cc1)C1CCCCC1 (stereo not drawn) [Example 62]",
    "UNIT_ABBREV": "%",
    "MEASURED_NUMBER": 68
  },
  {
    "COMPOUND": "COc1ccc2oc(C(Nc3ccc(C(=O)NCCC(=O)O)cc3)C3CCCCC3)c(Br)c2c1 (stereo not drawn) [Example A102]",
    "UNIT_ABBREV": "%",
    "MEASURED_NUMBER": 68
  },
  {
    "COMPOUND": "CCC(CC)C(Nc1ccc(C(=O)N(C)CCC(=O)O)cc1)c1oc2ccc(F)cc2c1C (stereo not drawn) [Example A72]",
    "UNIT_ABBREV": "%",
    "MEASURED_NUMBER": 79
  },
  {
    "COMPOUND": "Cc1c(C(Nc2ccc(C(=O)NCCC(=O)O)cc2)C2CCCCC2)oc2ccc(C#N)cc12 (stereo not drawn) [Example A98]",
    "UNIT_ABBREV": "%",
    "MEASURED_NUMBER": 78
  },
  {
    "COMPOUND": "Cc1c(C(Nc2ccc(C(=O)N(C)CCC(=O)O)cc2)C2CCCCC2)oc2ccc(Cl)nc12 (stereo not drawn) [Example A128]",
    "UNIT_ABBREV": "%",
    "MEASURED_NUMBER": 83
  },
  {
    "COMPOUND": "Cc1c(C(Nc2ccc(C(=O)NCCC(=O)O)cc2)C2CCCCC2)oc2ccccc12 (stereo not drawn) [Example A17]",
    "UNIT_ABBREV": "%",
    "MEASURED_NUMBER": 72
  },
  {
    "COMPOUND": "COc1ccc(-n2cc(C(Nc3ccc(C(=O)N(C)CCC(=O)O)cc3)C3CCCCC3)c(C)n2)cc1 (stereo not drawn) [Example 24]",
    "UNIT_ABBREV": "%",
    "MEASURED_NUMBER": 73
  }
]
